Test system: Human primary T cells
test-description: IL-2 ELISA, human primary T cell, anti-CD3+CD28+ (whole cell assay)
Assay type: cell-based
test-settings: Homo sapiens, T-cell, 24 h, human primary T cells stimulated with anti-CD3 + anti-CD28, 24 hours
# IC50 values compiled below

CC1(C)CC(Nc2nc(Nc3cc(OCCn4cncn4)cc(C(F)(F)F)c3)ncc2F)CC(C)(C)N1
500 to 1000 nM

Challenge: Endpoint output: IC50 of CC1(C)CC(Nc2nc(Nc3ccc(OC4CCN(CCF)CC4)c(Cl)c3)ncc2F)CC(C)(C)N1 . Value?
Response given: < 250 nM

Challenge: What do we get for CC1(C)CC(Nc2nc(Nc3ccc(OC4CCOCC4)c(F)c3)ncc2F)CC(C)(C)N1 ?
Response given: 500 to 1000 nM

Challenge: What do we get for CN1C(C)(C)CC(Nc2nc(Nc3cc(Cl)cc(-c4nnnn4C)c3)ncc2F)CC1(C)C ?
Response given: < 250 nM

====

System: Human primary T cells
test-description: IL-2 ELISA, human primary T cell, anti-CD3+CD28+ (whole cell assay)
Type: cell-based
test-settings: Homo sapiens, T-cell, 24 h, human primary T cells stimulated with anti-CD3 + anti-CD28, 24 hours
Description: Human primary T cells were prepared as follows. […] Human primary T cells (100,000 cells per well) were pre-incubated with or without test compound in Yssel's medium for 1 hr at 37° C. […] Cells were incubated at 37° C. for 24 hours before 100 μL supernatants were harvested for quantification of IL-2 by ELISA using Human IL-2 Duoset ELISA Kit from R and D Systems, Cat. #DY202E. […]
# IC50 values compiled below

Example results:
CC(C)N1CCC(Oc2ccc(Nc3ncc(F)c(NC4CC(C)(C)N(C)C(C)(C)C4)n3)cc2F)CC1
< 250 nM
CN1C(C)(C)CC(Nc2nc(Nc3ccc4c(c3)OCC(C(=O)N3CCCCC3)O4)ncc2F)CC1(C)C (stereo not drawn)
> 1000 nM
CC(C)Oc1ncc(Nc2ncc(C(N)=O)c(NC3CC(C)(C)NC(C)(C)C3)n2)cc1-c1nnnn1C(C)C
> 1000 nM

Challenge: Endpoint output: IC50 of CN1C(C)(C)CC(Nc2nc(Nc3cc(F)c(OC4CCN(CCO)CC4)c(F)c3)ncc2F)CC1(C)C . Value?
Response given: 250 to 500 nM

Challenge: What do we get for CCNC(=O)N1CCCC(Oc2ccc(Nc3ncc(F)c(NC4CC(C)(C)N(C)C(C)(C)C4)n3)cc2OC(F)F)CC1 (stereo not drawn) ?
Response given: 250 to 500 nM

Challenge: What do we get for CC1(C)CC(Nc2nc(Nc3ccc(OC4CCN(CCOCc5ccccc5)CC4)c(F)c3)ncc2F)CC(C)(C)N1 ?
Response given: 500 to 1000 nM

Challenge: What do we get for Cn1nnnc1-c1cc(Nc2ncc(F)c(NC3CC(C)(C)NC(C)(C)C3)n2)cc(OC2COC2)c1 ?
Response given: > 1000 nM

Challenge: What do we get for CC1(C)CC(Nc2nc(Nc3ccc(OC4CCN(CCF)CC4)c(OC(F)F)c3)ncc2F)CC(C)(C)N1 ?
Response given: 250 to 500 nM

Challenge: What do we get for CC(C)N1CCC(Oc2ccc(Nc3ncc(F)c(NC4CC(C)(C)N(C)C(C)(C)C4)n3)cc2OC(F)F)CC1 ?
Response given: < 250 nM

Challenge: What do we get for CN1C(C)(C)CC(Nc2nc(Nc3cc(OCCn4ccnn4)cc(C(F)(F)F)c3)ncc2F)CC1(C)C ?
Response given: 250 to 500 nM

Challenge: What do we get for CN1C(C)(C)CC(Nc2nc(Nc3ccc(OC4CCS(=O)(=O)CC4)c(F)c3)ncc2F)CC1(C)C ?
Response given: > 1000 nM

Challenge: What do we get for CCc1nnnn1-c1cc(Nc2ncc(F)c(NC3CC(C)(C)NC(C)(C)C3)n2)ccc1OC(F)F ?
Response given: 250 to 500 nM

Challenge: What do we get for CC1(C)CC(Nc2nc(Nc3cccc(-n4ccc(C(F)(F)F)n4)c3)ncc2F)CC(C)(C)N1 ?
Response given: > 1000 nM

Challenge: What do we get for CN1C(C)(C)CC(Nc2nc(Nc3ccc(OCCN4CCCC4)c(OC(F)F)c3)ncc2F)CC1(C)C ?
Response given: < 250 nM

Challenge: What do we get for CC(=O)N1CCC(Oc2ccc(Nc3ncc(F)c(NC4CC(C)(C)NC(C)(C)C4)n3)cc2OC(F)F)CC1 ?
Response given: 500 to 1000 nM
